# Purity(%) at day 21 (25° C.) listing for each entry below
protocol: Effect of temperature (and pH) on the stability of the solution (purity)
Format: physicochemical
recorded_conditions: 7% solution in water, pH 8.0, day 21, 25° C.
readout_label: Purity(%) at day 21 (25° C.)

INSERT INTO results (compound_structure, result_value) VALUES
  ('CCN(CC)CCOC(=O)CCc1nc(-c2ccccc2)c(-c2ccccc2)o1.Cl', 40.8),
  ('CCN(CC)CCOC(=O)COC(=O)Cc1c(C)n(C(=O)c2ccc(Cl)cc2)c2ccc(OC)cc12.Cl', 47.9),
  ('CCN(CC)CCOC(=O)Cc1ccc(C(=O)c2ccc(C)cc2)n1C.Cl', 43.6),
  ('CCN(CC)CCOC(=O)CCc1ccc2cc(OC)ccc2c1.Cl', 49.9),
  ('CCN(CC)CCOC(=O)COc1nn(Cc2ccccc2)c2ccccc12.Cl', 39.8);
